target: mouse TMEM16A mutant V543A (Mus musculus, UniProt Q8BHY3, V543A); construct: expressed in transfected cells; host or cells: HEK293T; experiment: Inside-out patch recording of 1PBC block, mutant V543A; assay type: cell-based; conditions: V543A; V 100 mV
Sequence (Q8BHY3 whole entry V543A): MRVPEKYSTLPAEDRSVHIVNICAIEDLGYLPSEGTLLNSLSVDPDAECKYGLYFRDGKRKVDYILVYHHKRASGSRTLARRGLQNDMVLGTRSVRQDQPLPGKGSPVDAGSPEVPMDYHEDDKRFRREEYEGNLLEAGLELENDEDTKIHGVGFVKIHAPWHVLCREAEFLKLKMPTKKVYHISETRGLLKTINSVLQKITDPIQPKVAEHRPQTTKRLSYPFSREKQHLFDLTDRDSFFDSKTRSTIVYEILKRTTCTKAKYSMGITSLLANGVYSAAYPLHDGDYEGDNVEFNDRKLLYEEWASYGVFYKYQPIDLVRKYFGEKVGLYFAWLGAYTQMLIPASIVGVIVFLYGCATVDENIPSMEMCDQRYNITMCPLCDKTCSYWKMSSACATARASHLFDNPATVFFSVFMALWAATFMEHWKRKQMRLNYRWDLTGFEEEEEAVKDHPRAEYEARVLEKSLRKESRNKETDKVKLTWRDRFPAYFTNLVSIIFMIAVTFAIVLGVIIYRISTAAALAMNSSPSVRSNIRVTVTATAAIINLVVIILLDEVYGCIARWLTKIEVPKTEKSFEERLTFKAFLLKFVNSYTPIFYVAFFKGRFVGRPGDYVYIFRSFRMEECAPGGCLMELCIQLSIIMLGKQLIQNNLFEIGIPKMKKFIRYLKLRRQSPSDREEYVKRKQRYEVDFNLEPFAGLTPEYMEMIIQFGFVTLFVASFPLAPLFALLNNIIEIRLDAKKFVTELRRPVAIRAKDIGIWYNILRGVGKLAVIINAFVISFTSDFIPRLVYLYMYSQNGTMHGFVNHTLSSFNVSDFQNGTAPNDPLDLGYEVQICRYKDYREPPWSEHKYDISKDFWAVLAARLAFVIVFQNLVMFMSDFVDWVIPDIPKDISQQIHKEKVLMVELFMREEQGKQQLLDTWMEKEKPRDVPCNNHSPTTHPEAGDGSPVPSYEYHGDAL
Result type: pIC50
Answers are plain numbers, as −log10 of the molar value.

What does the record list as pIC50 for N#Cc1c(C(F)(F)F)cc(O)n2c1nc1ccccc12 [1PBC] ?
5.08

---

biological target: wild-type mouse TMEM16A (Mus musculus, UniProt Q8BHY3); construct: expressed in transfected cells; host or cells: HEK293T; assay: Inside-out patch recording of 1PBC block, wild-type TMEM16A; type: cell-based; settings: 120 mV; 2 µM Ca2+
Sequence (Q8BHY3 whole entry): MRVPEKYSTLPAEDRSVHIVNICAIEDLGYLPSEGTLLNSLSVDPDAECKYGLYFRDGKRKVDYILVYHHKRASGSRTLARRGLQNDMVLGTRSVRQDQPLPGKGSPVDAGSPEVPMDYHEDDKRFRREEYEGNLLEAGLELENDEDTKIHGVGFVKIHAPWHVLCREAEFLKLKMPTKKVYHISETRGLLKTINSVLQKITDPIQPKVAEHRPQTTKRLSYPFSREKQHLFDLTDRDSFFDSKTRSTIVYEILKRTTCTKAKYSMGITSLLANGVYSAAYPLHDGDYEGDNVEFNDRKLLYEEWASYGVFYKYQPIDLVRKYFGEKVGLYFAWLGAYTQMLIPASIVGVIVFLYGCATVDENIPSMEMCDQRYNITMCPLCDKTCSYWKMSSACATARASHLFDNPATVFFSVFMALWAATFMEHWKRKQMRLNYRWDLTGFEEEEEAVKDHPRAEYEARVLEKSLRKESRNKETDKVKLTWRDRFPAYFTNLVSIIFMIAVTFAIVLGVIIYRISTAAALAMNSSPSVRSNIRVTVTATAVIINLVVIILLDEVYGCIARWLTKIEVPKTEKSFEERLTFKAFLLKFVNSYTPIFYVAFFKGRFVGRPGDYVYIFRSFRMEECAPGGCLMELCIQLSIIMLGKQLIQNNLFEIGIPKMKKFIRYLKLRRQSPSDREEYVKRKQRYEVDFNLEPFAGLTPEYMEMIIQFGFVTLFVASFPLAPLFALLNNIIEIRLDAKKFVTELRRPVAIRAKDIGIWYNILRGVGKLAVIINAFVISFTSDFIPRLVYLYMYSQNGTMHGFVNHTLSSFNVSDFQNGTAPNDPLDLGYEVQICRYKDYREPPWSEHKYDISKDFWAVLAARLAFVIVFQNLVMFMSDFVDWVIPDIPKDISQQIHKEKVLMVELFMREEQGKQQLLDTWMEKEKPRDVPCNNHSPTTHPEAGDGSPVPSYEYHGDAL
Result type: IC50 (µM)
Numbers only, in µM.

What does the record list as IC50 for `N#Cc1c(C(F)(F)F)cc(O)n2c1nc1ccccc12` ?
2.1
